# PROTOCOL_NOTES: yeast display, Sf9 membrane polyspecificity reagent, FACS + sequencing; frameworks hold sequencing errors
MEASURED_ENDPOINT: polyreactivity (PSR sort gate)

Worked set:
QVQLVESGGGLVQAGGSLRLSCAASGFTFYRNAMGWYRQAPGKERELVAAINYSGGSTYFADSVKGRFTISRDNAKNTVYLQMNSLKPEVTAVYYCAVPYNYYRYHYSGYDYWGQGTQVTVSS : high polyreactivity
QVQLVESGGGLVQAGRSLRLSCAATGLIFLLNAMGWYRQAPGKERELVAVITRVGDTNYADSVKGRFTISRDNAKNTVYLQMNSLKPEDTAVYSCAATSLTYEGYYWRQGTQVTVSS : low polyreactivity
QVQLVESGGGLVQAGGSLRLSCASSGRTIGVYAMGWYRQAPGKERELVAAISWSGGTTYYADSVKGRFTISRDNAKNTVYLQMNSLKPEDTAVYYCAADSYTEVDYWGQGTQVTVSS : low polyreactivity
QVQLVESGGGLVQAGGSLRLSCAASGFTFSSYVMGWYRQAPGKERELVAAISGSGGSTYYADSVKGRFTISRDNAKNTVYLQMNSLKPEDTAVYYCAAVRRVGPTSYYYWGQGTQVTVSS : high polyreactivity
QVQLVESGGGLVQAGGSLRLSCAASGRTFALNTMGWYRQAPGKERELVAAITIGGSTYYADSVKGRFTISRDNAKNTVYLQMNSLKPEDTAVYYCAARTRGAWAYWGQGTQVTVSS : high polyreactivity

Now for a further sequence.
Give recorded polyreactivity (PSR sort gate). QVQLVESGGGLVQAGGSLRLSCAPSGSTFEHYTMGWYRQAPGKERELVAAISRRGGRTYYADSVKGRFTISRDNAKNTVYLQMNSLKPEDTAVYYCNAPVYTRKSIDYDYCGQGTQVTVSS
high polyreactivity

###

# PROTOCOL_NOTES: yeast display, Sf9 membrane polyspecificity reagent, FACS + sequencing; frameworks hold sequencing errors
MEASURED_ENDPOINT: polyreactivity (PSR sort gate)

Some sequences with recorded polyreactivity (PSR sort gate):
QVQLVESGGGLVQAGGSLRLSCAASGIIFKIYAMGWYRQAPGKERELVAAISWRGGSTYYADSVKGRFTISRDNAKNTVYLQMNSLKPEDTAVYYCAAARGYRTGYGYWGQGTQVTVSS : high polyreactivity
QDQLVESGGGLVQAGGSLRLICAASGRTFYPYVMGWYRQAPGKERDLVAAITDSGGNTYYADSVKGRFTISRDNAKNTVYLQMNSLKPEDTAVYYCNARFYYPSRRGTFQYNYWGQGTQVTVSS : low polyreactivity
QVQLVESGGGLFQAGGSLRLSCAATGITFFRYPMGWYRQAPGKERELVAVITRGGTTYYADSVKGRFTISRDNAKNNAYLQINSLKPEDTAVSYCAAKPYYGYDYWGQGTQVTVSW : high polyreactivity
QVQLVESGGGLVQAGGSLRLSCDASGFTIYRYAMGWYRQAPGKERELVAAISSGGGSTYYADSVKGRFTISRDNAKNTVYLQMYILKPEDNAVYYCNAQGFIYYWLRYDYWGQGTQVTVSS : high polyreactivity

Determine its reported polyreactivity (PSR sort gate): QVQLVESGGGLVQAGGSLRLSSAPSGFTFDENAMGWYRQAPGINYSGASTYYADSVKGRFTISRDNAKNTVYLQMNSLKPEDTAVYYCAAEVVAQMNYWGQGTQVTVSS
low polyreactivity

For QVQLVESGGGLVQAGGSLRLSCAASGRIFHFNAMGWYRQAPGKERELVATITKRGGRTYYADSVKGRFTISRDNAKNTVYLQMNSLKPEDTAVYYCNADQSRYSAVSGYDYWGQGTQVTVSS , write its polyreactivity (PSR sort gate).
high polyreactivity

Supply polyreactivity (PSR sort gate) value. Item: QVHLVESGGGLVQAGGSLRLSCAASGSTFTRNVMGWYRQAPGKERELVASISRSGGRTYYADSVKGRFTISRDNAKNTVYLQMNSLKPEDTAVYYCAAKSFYYLDPYDYWGQGTQVTVSS
high polyreactivity

###

# PROTOCOL_NOTES: yeast display, Sf9 membrane polyspecificity reagent, FACS + sequencing; frameworks hold sequencing errors
MEASURED_ENDPOINT: polyreactivity (PSR sort gate)

QVQLVESGGGLVQAGGSLRLSCAASGLTFVTYAKGWYRQAPGKERELVAAISYSGGSTYYADSVKGRFTISRDNAKNTVYLQMNSLKPEDTAVYYCNARSPQPDGRPPYNYWGQGTQVTVSS : high polyreactivity
QVQLVESGGGLVQAGGSLRLSCAASGFMFSSYAMGWYRQAPGKERELVAAISWSDSSTYYADSVKGRFTISRDNAKNTVYLQMNSLKPEDTADYYCAAVIGPDVYYLLYDYWGQGTQVTVSS : low polyreactivity
QVQLVESGGGLVQAGGSLRLICAASGRIFNYNYMGLYRQAPGKERELLAAISWRGGSTYYADSVKGRFTISRDNAKNTVYLQMKSLKPEDTAVYYCNKRTRYSTGSRYDYWGQGTQVTVSS : high polyreactivity
QVQLVESGGGLVQAGGSLRLSCAASGRIFAVNAMGWYRQAPGKERELVASIRWSGGSTYYADSVKGRFTISRDNAKNTVYLQMNTLKPEDTAVYYCNKVRGKTYYGEGDYWGQGTQVTVSS : high polyreactivity
QVQLEESGGGLVQAGGSLRLSCAASGSTLKLNAMGWYRQAPGKERELVASINFSGGSTYYAYSVKGRFTISRDNAKNTVYLQMNSLKPEDTAVYYCAAEASSYSRSVRWRYVYYYWGQGTQVTVSS : high polyreactivity
QVQLVESGGGLFQAGGSLRLSCAASGFTFNRNAMGWYRQAPGKERELVAAISWSGGSTYYADSVKGRFTISRDNAKNPVYLQMNSLKPEDTAVYYCAKGYRRVYGPFYYWGQGTQVTVSS : low polyreactivity
QVQLVESGGGLVQAAGSLRLSCAASGRIFYSYAMGWYRQAPGKERELVAASSFSVGSTYYADSVKGRFTISRDNAKNTVYLQMNSLKPEDTAVYYCAASLGFPGYEYWGQGTQVTVSS : low polyreactivity
QVQLVESGGGLVQAGGSLRLSCAASGFIFATYDMGWYRQAPGKERELVAAIDSDGSTNYADSVKGRYTISRDNAKNTVYLQMNSLKPEDTEVYYCAADRFQWGFWWLEYWGQGTQVTVSS : high polyreactivity

Give polyreactivity (PSR sort gate) for the following sequence: QVQLVESGGGLVQAGGSLRLSCAASGRNFDDYAMGWYRQAPGKERELVAAISDSGGTTYYADSVKGRFTISRDNAKNTVYLQMNSLKPEDTAVYYCAKRYYGPHYWGQGTQVTVSS
low polyreactivity

Identify measured polyreactivity (PSR sort gate) corresponding to QVQLVESGGGLVQAAGSRRLSCDASGRIFGWYAMGWSRQAPGKERELVAAITNSGGSPYCADSVKGRFTISRDNAKNTVYLERKSLIPEDTAVYYCARSFSFYGKRKYDYWGQGTQVTVSS
high polyreactivity

Fill in polyreactivity (PSR sort gate) for record QVHLVESGGCLVQAGGSLRLSCAASGSTFSRYAMVWYRQAPGKEREYVAGISWSGGNTYYADSVKGRFTISRDNAKNTVYLQMNSLKTEATAVYYCASDFLDYWGVYGWAEYEYWGQGTQGTVSS
low polyreactivity

###

# PROTOCOL_NOTES: yeast display, Sf9 membrane polyspecificity reagent, FACS + sequencing; frameworks hold sequencing errors
MEASURED_ENDPOINT: polyreactivity (PSR sort gate)

HVQLVESGGGLVQAGGSLRLSCAASGRIFGRNAMGWYRQAPGKERELVAAISSGGSTYYADSVKGRLTISRDNAKNTVYLQMNSLKPEDTAVYYFAVRGSYYNGGRAFESWGQGTQVTVSS : high polyreactivity
QVQLVESWGGLVQAGGSLRLSSPASGFTFFYYAMGWYRPAPGKERELVAAITSGGSTKNADSVKGRFTISRDNAKNSVYLQMNSLKPEDTAVYYCAARVRISGSPRILYNYWGQGTQVTVSS : high polyreactivity

###

# PROTOCOL_NOTES: yeast display, Sf9 membrane polyspecificity reagent, FACS + sequencing; frameworks hold sequencing errors
MEASURED_ENDPOINT: polyreactivity (PSR sort gate)

These solved cases illustrate the format of a correct answer.
QVQLVESGGGLVQAGGSLRLSCAASGFIFVDYDMGWYRQAPGKERELVAAITDSGTSTYYADSVKGRFTISRDNAKNTVYLQMNSLKPEDTAVYYCNTDVSPSFDYWGQGTQVTVSS : low polyreactivity
QVQLVESGGGLVQAGGSLRLSCAASGITFRGYARGWYRQAPGKERELVASITNTDSTYYADSVKGRFTISRDNAKNTVYLQMNSLKPEDTAVYYCAARRGRKYGYWGQGTQVTVSS : high polyreactivity
QVQLLESGGGLVQAGGSLRLSFAASGYIFSVNAMGWYRQAPGQERELVATIRTDGTTNYADSVNGRFTISRDNAKNTVYLKMNSLKPEDTAVYYCATDSGWSTYDYWGQGTQVTVSS : high polyreactivity
QVQLVESGGGLVQAGGSLRLSCAASGSIFDSYAMGWYRQAPGKERELVAGIRWDSGSTYYADSVKGRFTISRDNAKNTVYLQINSLKPEDTAVYYCAADLFDFLLIDGFAVVTYGYWGQGTQVTVSS : low polyreactivity
QVQLVESGGGLVQAGGSLRLSCAASGRTFSKYAMGWYRQAPGKERELVAAITDGRGDTYYADSVKGRFTISRDNEKNTVYLQMNSLKPEDTAVYYCAADPGYSLYEYWGQGTQVTVSS : low polyreactivity

Give a short answer stating reported polyreactivity (PSR sort gate) for QVQLVESGGGLVQAGGSLRLSCAASGRIFSYMGWYRQAPGKERELVASISWSGGSTYYADSVKGRFTISRDNAKNTVYLQMNSLKPEDTAVYYCAAYLRSYVRYYYWGQGTQVTVSS .
high polyreactivity

Return value of polyreactivity (PSR sort gate) for input QVQLVESAGGLLQAGGTLRLICAASGRIFTNYAMGWYRQAPGKERELVAAINWSGSRTFYADSVMGRFTISRDNAKYTVYLQLNSLKPEDTAVYSCAADALRKPKIALYDYWGQGTQVTVSS , no commentary.
high polyreactivity

Write down polyreactivity (PSR sort gate) measured for item QVQLVESGGGLVQAGGSLRLSCAASGITFFSYAMGWYREAPGKERELVAAISRRTGSTYYADSVKGRFTISRDNGMNTVFLQMMSLKPEDTAVYYCAARLPGTRYPYDYWGQGTQVTVSS
high polyreactivity

Let me know recorded polyreactivity (PSR sort gate) for QVQLVESGGGLVQAGGSLRLSCAASGITYYRYTMGWYRQAPGKDRELVASINWSGTRTYYADSVKGRFTISRDNAKNTVYLLMNSLKPEDTAVYYCAAKGAQGTSRRWFDYWGQGTQVTVSS , thanks.
high polyreactivity

# return recorded polyreactivity (PSR sort gate) for input QVQLVESGGGLVQAGGSLRLSCAAYGSTFASYSMGWYRQAPGKERELVADISKSGTRTYYADSVKGRFTISRDNAKNTVYLQMNSLKPEDTAVYYCATGQYLRTSRFYYWGHGTQVTVSS
high polyreactivity

Name the recorded polyreactivity (PSR sort gate) of the item QVQLVESGGGLVQAGGSLRLSCAASGRIFSYYTMGWYRQEPRKERELVATITSGVNTNYADSVKGRFTISRDNAKNTVYLQMNSLKPEDTAVFYCIARGTAERDYWGQGTQVTVSS in your answer.
high polyreactivity
